- Test system: NCI-H522
- EXPERIMENTAL_PROTOCOL: NCI tumour cell line growth inhibition, 48 h
Activity calls are given as the source filed them. Rule as the data show it: active = GI50 up to about 1.1 µM and inactive = higher.
Form entry, call: pick from TRUE = active, FALSE = inactive

Fill in: this test's call for CCOC(=O)COS(=O)(=O)C(F)(F)F is ___
FALSE

GET /call?item= CCOc1cc2c(cc1O)C(N)C[C@@H]1[C@@H]2CC[C@]2(C)[C@@H](O)CC[C@@H]12 (some centres undefined) returns the recorded outcome of this test.
FALSE

In this assay, the call recorded for O=C1c2ccccc2S(=O)(=O)c2cc(-c3nn[nH]n3)ccc21 was what?
FALSE

GET /call?item= [N-]=[N+]=CC(=O)C1(C(=O)C=[N+]=[N-])CC1 returns the recorded outcome of this test.
FALSE

Name the outcome recorded for CCC(=C(c1ccc(OCc2ccccc2)cc1)c1ccc(OCc2ccccc2)cc1)c1ccc(OC)cc1 in the assay.
FALSE

For CC[P+](C#Cc1ccccc1)(c1ccccc1)c1ccccc1 , what call appears in the results of this test?
FALSE

Identify the outcome logged in this assay for the compound shown: C=CCNC(=O)NC(=O)CSC1=NC(=O)C2(NN1)c1ccccc1-c1ccccc12
FALSE

Answer briefly: the call reported for c1cncc(C(Nc2cccc3cccnc23)Nc2cccc3cccnc23)c1 in this assay.
FALSE

Recorded test outcome, item Nc1ccc(-c2nc3cc(F)ccc3s2)cc1CO
FALSE

Call for entry Nc1c(C(=O)Nc2ccccc2)[n+]([O-])c2ccccc2[n+]1[O-] :
FALSE

Identify the outcome logged in this assay for the compound shown: CCOC(=O)CCc1cn2cc(Br)nc(OC)c2n1
FALSE

Each compound tested received a call. Report the one for COc1cc(/C=C/C(=N\NC(N)=S)c2sc(NNC(C)=O)nc2C)ccc1O .
FALSE

For CC(C)C(NC(=O)C(Cc1ccccc1)NC(=O)[C@H]1CCC[C@H]1NC(=O)C(Cc1ccc(OC(C)(C)C)cc1)NC(=O)OC(C)(C)C)C(N)=O (some centres undefined) , which call appears in the assay record?
FALSE

Hi, do you know how S=c1[nH]nc(COc2ccc3c(c2)CCCC3)n1/N=C/c1ccc(Cl)cc1 came out in this test?
FALSE

Outcome logged for COC1/C=C/OC2(C)Oc3c(C)c(O)c4c(c3C2=O)C(=O)C=C(NC(=O)/C(C)=C\C=C\C(C)C(OC=O)C(C)C(O)C(C)C(OC(C)=O)C1C)C4=O (centres undefined) in this assay:
FALSE

Recorded test outcome, item CC(C)(CCC(C)(C)c1ccccc1)c1ccccc1
FALSE

Any idea what this test logged for Cc1[nH]c2ncn3[nH]c(=S)nc3c2c1Cc1ccccc1 ?
FALSE

Give the logged outcome of this assay for the following compound: C=CCNC(=S)N/C=C1\C(=O)Oc2ccccc2C1=O
FALSE

Tell me the assay call for CCCCOC(=O)NC(c1ccccc1)C(O)C(=O)OC1C[C@@]2(O)C(OC(=O)c3ccccc3)C3[C@](C)(C(=O)[C@H](OC(C)=O)C(=C1C)C2(C)C)[C@@H](O)C[C@H]1OC[C@@]31OC(C)=O (some centres undefined) please.
TRUE

Returns: the outcome recorded for CNC(=O)c1ccccc1-[s+]1c2ccccc2c(=O)n1C (centres undefined) in this assay.
FALSE

For CC(C)C1CO[C@]2(C)CCC(=O)N12 (some centres undefined) , which call appears in the assay record?
FALSE

Fill in: this test's call for O=C(Cn1ccnc1[N+](=O)[O-])NCc1ccc(F)cc1 is ___
FALSE

Just curious, what result did CC(C)C(Nc1c2ccccc2[n+]([O-])c2ccccc12)C(=O)O (centres undefined) get here?
FALSE

Dear colleague, could you share the recorded outcome for OCC(O)C(O)C(O)c1nn(-c2ccccc2)c2nc3cc(Cl)c(Cl)cc3nc12 (centres undefined) when you have a moment?
FALSE

----------
- System: HCT-116
- EXPERIMENTAL_PROTOCOL: NCI tumour cell line growth inhibition, 48 h
Activity calls are given as the source filed them. Rule as the data show it: active = GI50 up to about 1.1 µM and inactive = higher.
I would appreciate it if you answered using one of these outcomes: active, inactive

Given COC(=O)C1(NC(=O)C(CC(=O)OCc2ccccc2)NC(=O)OCc2ccccc2)CCCCCCC1 (stereo unspecified) , state the outcome it received in this test.
inactive

Which result was noted for this compound in the test: CC1=NN(C(=O)Nc2ccc(Cl)cc2)C(=O)C2CCC(=O)N12 (stereo unspecified)
inactive

Check the results log: what was the call for COC(=O)C#CC1(O)C=CC(=O)C=C1 ?
active

In this assay, the call recorded for CC(C)CC1c2[nH]c3ccccc3c2C[C@H]2C(=O)NC(Cc3c[nH]c4ccccc34)C(=O)N12 (stereo partly specified) was what?
inactive

Returns: the outcome recorded for O=C1Nc2ccccc2/C1=N/NC(=O)C(O)(c1ccccc1)c1ccccc1 in this assay.
inactive

Answer briefly: the call reported for CC1(C=O)CCC23COC4(CCC5C6(C)CCC(OC7OCC(OC8OC(CO)C(O)C(OC9OC(CO)C(O)C(O)C9O)C8OC8OCC(O)C(O)C8O)C(O)C7OC7OC(CO)C(O)C(O)C7O)C(C)(C)C6CCC5(C)C4(C)CC2O)C3C1 (stereo unspecified) in this assay.
inactive

Please share the test call associated with [N-]=[N+]=CC(=O)C1(C(=O)C=[N+]=[N-])CC1 .
inactive

Assay result, entry C[N+]1(CCCl)CC[N+](C)(CCCl)CC1 (stereo unspecified) — outcome?
inactive

Record request — test call for CCC/C(C)=N/NC(=S)SC.CCC/C(C)=N/NC(=S)SC.[Zn+2]
inactive

Fill in: this test's call for Cc1c(S(=O)(=O)N/C(=N\O)Nc2ccc(Cl)c(Cl)c2)sc2ccc(Cl)cc12 is ___
inactive

# lookup: test call for O=c1n(CC2CO2)c(=O)n(CC2CO2)c(=O)n1CC1CO1 (stereo unspecified)
inactive

Dear all, I need the recorded test outcome for COc1cccc(-c2cc(C(=O)Nc3ccc(Cl)cc3)nc(N)n2)c1 , thank you.
inactive

I would be grateful if you could indicate the recorded call for COC1/C=C/OC2(C)Oc3c(C)c(O)c4c(c3C2=O)C(=O)C=C(NC(=O)/C(C)=C\C=C\C(C)C(OC=O)C(C)C(O)C(C)C(OC(C)=O)C1C)C4=O (stereo unspecified) .
inactive

Please indicate how the test categorized CC(C)CN1CN(c2ccccc2)C2(CCN(CC(C)(c3ccc(F)cc3)C3OCCO3)CC2)C1=O (stereo unspecified) .
inactive

Per the assay record, what outcome was assigned to CCCCCC(=O)OCC(=O)[C@H]1[C@H](C)C[C@H]2[C@@H]3C[C@H](F)C4=C/C(=N/OC(=O)c5cccc6c(=O)c7ccccc7[nH]c56)C=C[C@]4(C)[C@H]3[C@@H](O)C[C@@]21C ?
inactive

Answer briefly: the call reported for COc1ccc(Oc2nc(C#CC(C)(C)O)nc(Oc3ccc(OC)cc3)n2)cc1 in this assay.
inactive

# lookup: test call for CC1=C(C(=O)OCCO[N+](=O)[O-])C(c2ccccc2C(F)(F)F)C(C(=O)OC(C)C)=C(C)N1 (stereo unspecified)
inactive

Outcome logged for C=C1CCCC(C)(C)[C@@H]1CC/C(C)=C/Cn1c2cccc(=O)c-2nc2ccccc21 in this assay:
inactive

Hi, sorry to bother you, what did the test record for O=C(c1ccc(Cl)cc1)C(O)c1ccc(Cl)cc1 (stereo unspecified) ?
inactive

Please let me know the test result on file for CCNC(=O)C#CC(=O)NCC .
inactive

Outcome? CN(C)C1(C(=O)O)CC1
inactive

Outcome? C=CCC1C(=O)Nc2cccc3ncn(c23)C1=O (stereo unspecified)
inactive

Record lookup: outcome of this test for Cc1cc(-c2ccc(/N=N/c3ccc4c(S(=O)(=O)O)cc(S(=O)(=O)O)c(N)c4c3O)c(C)c2)ccc1/N=N/c1ccc2c(S(=O)(=O)O)cc(S(=O)(=O)O)c(N)c2c1O ?
inactive

Could you check what this test reported for O=C1C(Cl)N(c2c(Cl)cccc2Cl)C1c1c[nH]c2ccccc12 (stereo unspecified) ?
inactive

// outcome(item) with item = C[C@@H]1CC[C@@]2(OC1)O[C@H]1[C@@H](O)[C@H]3[C@@H]4CC[C@H]5C[C@@H](O[C@@H]6O[C@H](CO)[C@H](O[C@@H]7O[C@H](CO)C(O)[C@H](O[C@@H]8OC[C@@H](O)[C@H](O)[C@H]8O)[C@H]7O[C@@H]7O[C@H](CO)[C@H](O)[C@H](O[C@@H]8O[C@H](CO)[C@@H](O)[C@H](O)[C@H]8O)[C@H]7O)[C@H](O)[C@H]6O)[C@H](O)C[C@]5(C)[C@H]4CC[C@]3(C)[C@H]1[C@@H]2C (stereo partly specified)
inactive

Name the outcome recorded for CCOC(=O)NC(Nc1c(F)c(F)c(F)c(F)c1F)(C(F)(F)F)C(F)(F)F in the assay.
inactive

Outcome? CC1=C2CC(C)(C)/C=C\C(=O)/C(C)=C\C3=C[C@H](C)C[C@]3(O2)C1=O
active

What call does the record list for COC(=O)c1cc(CNCCc2c[nH]c3ccccc23)on1 ?
inactive

What was the test verdict on COc1c2c(cc3c1OCO3)C13C=CC(OC)CC1N(CC3)C2.[O-][Cl+3]([O-])([O-])O (stereo unspecified) ?
inactive

Call for entry COC(=O)c1c/c(=N\NC(=O)CC(=O)Nc2ccc(C)cc2)c2ccccc2o1 :
inactive

Please indicate how the test categorized O=C(C=P(c1ccccc1)(c1ccccc1)c1ccccc1)c1ccc(-c2cccc([N+](=O)[O-])c2)cc1 .
inactive

What outcome does the record of this test show for CN(C)Cc1cc(/C=C/C(=O)c2ccc(Cl)c(Cl)c2)cc(CN(C)C)c1O ?
inactive

For CN(C)S(=O)(=O)n1cnc(CO)c1 , what call appears in the results of this test?
inactive

Please indicate how the test categorized [N-]=[N+]=CC(=O)OC(CCl)CCl .
inactive

Outcome? CCP(=O)(CC)C(Cl)(Cl)C(=O)NC
inactive

Assay result, entry O=C(NCCC(F)(F)C(F)(F)C(F)(F)C(F)(F)F)NC1OC(CO)C(O)C(O)C1O (stereo unspecified) — outcome?
inactive
